# Test summary: inhibition of 3D7 malaria parasite growth – strain 3D7 (AID 2306);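 also: 0% = DMSO wells and 100% = chloroquine plus artemisinin control wells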
# Recorded conditions: P. falciparum 3D7 erythrocytic growth, LDH absorbance, 72 h; at 2 µM; hits give high values
Record form. Attribute: growth inhibition. Fill in for each entry.
Numeric answer only, unit % assumed.

Quick one: give measured growth inhibition for COc1ccc(C2=C(Nc3ccc4oc5ccccc5c4c3)c3ccccc3C2=O)cc1
93

Quick one: give measured growth inhibition for c1ccc(Oc2ccc(Nc3nc(NCCc4cnc[nH]4)nc(NC4CCCC4)n3)cc2)cc1
97

Quick one: give measured growth inhibition for N#Cc1ccc(-c2ccc(C(=O)NC3CCN(CCN4CCC(c5cn(CCO)c6ccccc56)CC4)CC3)cc2)cc1
100

Quick one: give measured growth inhibition for Nc1nc(N)c2c(ccc3c2cnn3S(=O)(=O)N2CCCC2)n1
93

Quick one: give measured growth inhibition for Cc1cc(N[C@@H](Cc2ccccc2)C(=O)Nc2ccccc2)nc(NCCc2cccs2)n1
100

Quick one: give measured growth inhibition for CN1CCC(N(Cc2ccc(-c3ccc(Cl)cc3)cc2)C(=O)Cn2c(CCc3cccc(F)c3F)cc(=O)c3ccccc32)CC1
97

Quick one: give measured growth inhibition for Cn1cc(CCNc2ccnc(NCCc3coc4ccccc34)n2)c2ccccc21
87

Quick one: give measured growth inhibition for CC(C)(C)c1ccc(-c2cc3c(ccc4nc(N)nc(N)c43)[nH]2)cc1
101

Quick one: give measured growth inhibition for COc1ccc2cc(C=NNc3nc4ccccc4[nH]3)c(Cl)nc2c1
100

###

# Test summary: inhibition of 3D7 malaria parasite growth – strain 3D7 (AID 2306);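 also: 0% = DMSO wells and 100% = chloroquine plus artemisinin control wells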
# Recorded conditions: P. falciparum 3D7 erythrocytic growth, LDH absorbance, 72 h; at 2 µM; hits give high values
Metric: growth inhibition (%)
Numeric answer only, unit % assumed.

Quick one: give measured growth inhibition for CN1CCC(NCc2cccc(-c3ccc(S(=O)(=O)NCCc4ccccn4)c(F)c3)c2)CC1
98

Quick one: give measured growth inhibition for Fc1cccc(COc2ccc(Nc3ncnc4sc(C#C[C@H]5CC[C@H](CNCC(F)(F)F)N5)cc34)cc2Cl)c1
100

Quick one: give measured growth inhibition for Cc1cc(Cl)ccc1NC(=O)NCCCCCN1CCC(c2c[nH]c3ccccc23)CC1
91

Quick one: give measured growth inhibition for O=C(Cc1ccc(-c2ccccc2)cc1)N[C@H]1CCN(Cc2ccc(OCCCN3CCCCC3)cc2)C1
99

Quick one: give measured growth inhibition for COc1ccc(CCNCCCCCCNCCc2ccc(-c3ccccc3)cc2)cc1OC
99

Quick one: give measured growth inhibition for Cc1ccc(Nc2nccc(NCC(O)c3cccc(C)c3)n2)cc1 (stereo not given)
90

Quick one: give measured growth inhibition for N#Cc1ccc(NC(=O)Nc2ccc(OC(F)(F)F)cc2)cc1
98

Quick one: give measured growth inhibition for CCCCCc1cc(OC(=O)CCCN(CC)CC)c2c(c1)OC(C)(C)C=C2C1=CCN(Cc2ccc3ccccc3c2)CC1
100

Quick one: give measured growth inhibition for O=C(/C=C/c1ccc(Cl)c(Cl)c1)NCCCCCN1CCCN(C(=O)Nc2ccc(F)c(F)c2)CC1
102

Quick one: give measured growth inhibition for CN(C)CCN(C)Cc1ccc(-c2cccc(-c3nc4ccccc4[nH]3)c2)cc1
101

Quick one: give measured growth inhibition for O=S(=O)(c1c(Cl)cc(Cl)cc1Cl)N1CCCCC(c2ccc(C(F)(F)F)cc2)=N1
98

Quick one: give measured growth inhibition for CNCCNc1nccc(N2CCc3ncnc(Nc4ccc(OCc5cccc(F)c5)c(Cl)c4)c3C2)n1
100

Quick one: give measured growth inhibition for c1ccc(CN2CCc3cc4nccc(N5CCNCC5)c4cc32)cc1
100

Quick one: give measured growth inhibition for CCOc1c(CNCCCNc2nc3ccccc3[nH]2)cc(I)cc1OC
100

Quick one: give measured growth inhibition for c1ccc(Oc2ccc(Nc3ccnc4cc(-c5csc(CNCCN6CCOCC6)n5)ccc34)cc2)cc1
101

Quick one: give measured growth inhibition for COc1ccc(-c2nccc(NC(N)=NCc3ccccc3)n2)cc1
83

Quick one: give measured growth inhibition for NS(=O)(=O)NCCCN1CCN(c2ccccc2)CC1
90

Quick one: give measured growth inhibition for COc1cc2nccc(Nc3ccc4c(cnn4Cc4ccccc4F)c3)c2cc1OC
101

Quick one: give measured growth inhibition for O=C(Cn1c(CCc2cccc(F)c2F)cc(=O)c2cccnc21)N(CCN1CCCC1)Cc1ccc(-c2ccc(C(F)(F)F)cc2)cc1
99

Quick one: give measured growth inhibition for C#CC(C)(CO)N1CCCC1 (stereo not given)
95

###

# Test summary: antimalarial activity against Dd2 strain (AID 2302);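 also: 0% = DMSO untreated growth and 100% = chloroquine plus artemisinin killed control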
# Recorded conditions: P. falciparum Dd2 in RBCs, LDH growth readout, 72 h; at 2 µM
Calls of active or inactive are those of the source.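 How the source made its calls: active means growth inhibition above 50% at the single 2 µM test dose, taken to imply half-maximal potency below 2 µM; inactive means the rest.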
I would appreciate it if you answered using one of these outcomes: active, inactive

// return assay outcome for CC(C)(C)C(=O)Oc1ccc(CC2NCCc3cc(OC(=O)C(C)(C)C)c(OC(=O)C(C)(C)C)cc32)cc1OC(=O)C(C)(C)C (stereo unspecified)
active

// return assay outcome for Cc1cc(Nc2ccccc2)nc(NCCOc2ccccc2)n1
inactive

// return assay outcome for Cc1nc2ccc3ccc(CN(C)c4ccc(C(=O)N[C@@H](CCC(=O)O)C(=O)O)cc4)cc3c2c(=O)[nH]1
inactive

// return assay outcome for O=C(Nc1ccc(OC2CCN(Cc3ccsc3)CC2)c(Cl)c1)c1ccc(F)cc1
active

// return assay outcome for COc1cc(Cn2ccc3c4c(N)nc(N)nc4ccc32)cc(OC)c1OC
active

// return assay outcome for CN1CCN(CCCN(Cc2ccc(-c3cccc(CNC4CCCC4)c3)cc2)C(=O)/C=C/c2ccccc2)CC1
active

// return assay outcome for CN(C)Cc1ccc(O)c(-c2ccc(C(C)(C)C)cc2)n1
inactive

// return assay outcome for COc1cccc2c(NN=Cc3cccc(F)c3)ccnc12
inactive

// return assay outcome for COc1ccc2nccc([C@@H](O)CN3CCC(NCCOc4cccc(F)c4F)CC3)c2c1
active

// return assay outcome for Cc1cc(NC(=O)NCCN2CCC(NC(=O)c3ccc(F)cc3)CC2)c2ccccc2n1
active

// return assay outcome for COc1cc2nccc(Nc3ccc(NC(=O)c4ccc(C)cc4)c(O)c3)c2cc1OC
active

// return assay outcome for COc1cc(F)c2ncc(Cl)c(C(O)CN3CCC(NC(=O)c4ccc5c(c4)NC(=O)CS5)CC3)c2c1 (stereo unspecified)
active

// return assay outcome for C[C@H](NC(=O)[C@H](Cc1ccccc1)NC(=O)OC(C)(C)C)C(=O)N[C@@H](CC1CCCCC1)C(O)CN (stereo partly specified)
active

// return assay outcome for CCNc1cc(C(=O)N[C@@H](Cc2ccccc2)[C@H](O)CNC(C)(C)CCCC(C)C)cc(N2CCCCS2(=O)=O)c1
active

// return assay outcome for C=C[C@]1(C)C[C@@H](OC(=O)CS[C@H]2CN3CC[C@H]2C3)[C@@]2(C)C3C(=O)CC[C@@]3(CC[C@H]2C)[C@@H](C)[C@@H]1O (stereo partly specified)
active

// return assay outcome for O=C(/C=C/c1ccc(Cl)c(Cl)c1)NCCCCCN1CCCC(CNC(=O)Nc2ccc(C(F)(F)F)cc2)C1 (stereo unspecified)
inactive

// return assay outcome for O=C(NC1CCN(CCN2CCC(c3c[nH]c4ccccc34)CC2)CC1)c1ccc(-c2ccc(C(F)(F)F)cc2)cc1
active

// return assay outcome for O=C(NCCCNc1ccc2ccccc2n1)c1cc2c(Cl)cc(Cl)cc2[nH]1
active

// return assay outcome for CC1CN(Cc2cccc(-c3ccc(-c4nc5ccccc5[nH]4)cc3)c2)CC(C)O1 (stereo unspecified)
active

// return assay outcome for O=[N+]([O-])c1cccc(Nc2nccc(-c3cnn4ncccc34)n2)c1
active

// return assay outcome for COc1cccc(C(=O)Nc2sc3c(c2C(N)=O)CCCC3)c1OC
inactive

// return assay outcome for CCN(CC)CCN(Cc1ccc(-c2ccc(C(F)(F)F)cc2)nc1)C(=O)Cn1cc(Cc2cnn(C)c2)c(=O)n2nc(-c3ccccc3)cc12
active

// return assay outcome for O=C(NCC1CCC(C(=O)O)CC1)c1ccc(/C=C/C(=O)N2CCc3ccccc3C2c2ccc3c(c2)OCO3)cc1 (stereo unspecified)
inactive

// return assay outcome for O=C(NCC1CCN(Cc2cccc(C(F)(F)F)c2)C1)c1cc(-c2cccc(Cl)c2)cs1 (stereo unspecified)
inactive

// return assay outcome for CC(CN1CCN(C)CC1)C(=O)Nc1cccc(-c2ccc(-c3nc4ccc(C(F)(F)F)cc4[nH]3)cc2)c1 (stereo unspecified)
active

// return assay outcome for Cc1cccc2[nH]c(-c3cccc(-c4cccc(NC(=O)c5cccnc5Cl)c4)c3)nc12
inactive

// return assay outcome for COc1cc(CNCCCCCCNCc2cc(OC)cc3ccccc23)c2ccccc2c1
active

// return assay outcome for CCCNCc1ccc(-c2ccc(CN(Cc3ccc4c(c3)OCO4)C(=O)Cc3cccnc3)cc2)nc1
active

// return assay outcome for COc1ccc(Oc2ccc(Nc3ccnc4ccc(C(F)(F)F)cc34)cc2)cc1OC
inactive

// return assay outcome for CO/C(=C\C=C\c1cc2cc(Cl)c(Cl)cc2[nH]1)C(=O)NCCCN1CCN(c2ccncc2)CC1
active

// return assay outcome for CCS[C@@H]1O[C@H](COC(=O)c2ccccc2)[C@H](OC(=O)c2ccccc2)[C@H](OC(=O)c2ccccc2)[C@H]1OC(=O)c1ccccc1
active

// return assay outcome for CC(c1cccc(S(=O)(=O)NCc2ccc(Cl)cc2Cl)c1)N1CCC(N2CCCCC2)CC1 (stereo unspecified)
inactive

// return assay outcome for COc1ccc(Cc2nc(N=C(N)Nc3ccccc3)ccc2OC)cc1
active

// return assay outcome for CSC1=NC2(CC(c3cccc(C)c3)c3cc(Cl)c(O)cc3O2)CC(C)(C)N1 (stereo unspecified)
active

// return assay outcome for CN(C)CCN(C)Cc1ccc(-c2ccc(NC(=O)c3cccc(C#N)c3)cc2)cc1
inactive

// return assay outcome for Cc1cccc2sc(N(CCCn3ccnc3)C(=O)C=Cc3cccs3)nc12
inactive
